assay target: Avi-KRAS WT (1-169) GppNHp/RAF1 RBD-3xFLAG (52-151) (Homo sapiens, UniProt P01116)
Construct: Avi-KRAS WT (1-169)
Sequence (P01116 1-169 isoform P01116-2): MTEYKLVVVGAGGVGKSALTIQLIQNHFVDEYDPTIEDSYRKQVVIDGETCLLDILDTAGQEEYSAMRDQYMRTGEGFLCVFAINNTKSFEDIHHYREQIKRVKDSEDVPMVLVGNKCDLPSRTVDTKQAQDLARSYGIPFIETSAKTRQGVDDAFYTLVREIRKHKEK
run description: Raf1-KRAS WT-GppNHP disruption HTRF assay (Biological Example 1)
Format: binding
condition description: KRAS WT, GppNHp-loaded; class symbols
IC50 reference

Answered cases to consult:
[2H][C@]1(N(CC)c2nc(OC[C@@]34CCCN3C[C@H](F)C4)nc3c(F)c(-c4ccc(F)c5sc(N)c(C#N)c45)c(C(F)(F)F)cc23)CCN(C(=O)OC)C1 (atropisomer, axis not shown): < 100 nM
CCN(c1nc(OC[C@@]23CCCN2C[C@H](F)C3)nc2c(F)c(-c3ccc(F)c4sc(N)c(C#N)c34)c(C(F)(F)F)cc12)[C@H]1C[C@H](C)N(C(=O)c2ccon2)C1 (atropisomer, axis not shown): < 100 nM
[2H]C([2H])([2H])OC(=O)N1CC[C@H](N(CC)c2nc(OC[C@@]34CCCN3C[C@H](F)C4)nc3c(F)c(-c4ccc(F)c5sc(N)c(C#N)c45)c(C(F)(F)F)cc23)C1 (atropisomer, axis not shown): < 100 nM
CCN(CC)C(=O)c1cc2n(n1)CCN(c1nc(OCC34CCCN3CC(F)C4)nc3c(F)c(-c4ccc(F)c5sc(N)c(C#N)c45)c(C(F)(F)F)cc13)C2 (centres unmarked): 100 to 1000 nM
CCN(c1nc(OC[C@@]23CCCN2C[C@H](F)C3)nc2c(F)c(-c3ccc(F)c4sc(N)c(C#N)c34)c(C(F)(F)F)cc12)[C@H]1CCN(C(=O)OC2CC(OC)C2)C1 (some centres unmarked): < 100 nM
CCN(c1nc(OC[C@@]23CCCN2C[C@H](F)C3)nc2c(F)c(-c3ccc(F)c4sc(N)c(C#N)c34)c(C(F)(F)F)cc12)[C@H]1CCN(C(=O)[C@@H](C)OC)[C@@H]1C (atropisomer, axis not shown): < 100 nM
CN(C)C(=O)N1CC[C@H](N(C)c2nc(OC[C@@]34CCCN3C[C@H](F)C4)nc3c(F)c(-c4ccc(F)c5sc(N)c(C#N)c45)c(C(F)(F)F)cc23)C1 (atropisomer, axis not shown): 100 to 1000 nM
CCN(c1nc(OC[C@@]23CCCN2C[C@H](F)C3)nc2c(F)c(-c3ccc(F)c4sc(N)c(C#N)c34)c(C(F)(F)F)cc12)[C@@H]1CC(=O)N(CC(F)F)C1 (atropisomer, axis not shown): < 100 nM

[Q] What measured IC50 goes with "C/C=C\C(=O)N1CC[C@@H](N(C)c2nc(OC[C@@]34CCCN3C[C@H](F)C4)nc3c(F)c(-c4ccc(F)c5sc(N)c(C#N)c45)c(C(F)(F)F)cc23)[C@H]1C" ?
[A] 100 to 1000 nM

[Q] Which IC50 is reported for this compound? CCN(c1nc(OC[C@@]23CCCN2C[C@H](F)C3)nc2c(F)c(-c3ccc(F)c4sc(N)c(C#N)c34)c(C(F)(F)F)cc12)[C@H]1CCN(C(=O)c2ncco2)C1 (atropisomer, axis not shown)
[A] < 100 nM

[Q] Recorded IC50 of CCN(c1nc(OCC23CCCN2CC(F)C3)nc2c(F)c(-c3ccc(F)c4sc(N)c(C#N)c34)c(C(F)(F)F)cc12)C1CCN(C(=O)c2ccccn2)C1 (centres unmarked) , please.
[A] < 100 nM
